- Test System: human CaR (Homo sapiens)
- Construct: expressed in transfected cells; cDNA amplified from human kidney cDNA (TOYOBO); membrane fraction used
- Sequence (P41180 20-1078): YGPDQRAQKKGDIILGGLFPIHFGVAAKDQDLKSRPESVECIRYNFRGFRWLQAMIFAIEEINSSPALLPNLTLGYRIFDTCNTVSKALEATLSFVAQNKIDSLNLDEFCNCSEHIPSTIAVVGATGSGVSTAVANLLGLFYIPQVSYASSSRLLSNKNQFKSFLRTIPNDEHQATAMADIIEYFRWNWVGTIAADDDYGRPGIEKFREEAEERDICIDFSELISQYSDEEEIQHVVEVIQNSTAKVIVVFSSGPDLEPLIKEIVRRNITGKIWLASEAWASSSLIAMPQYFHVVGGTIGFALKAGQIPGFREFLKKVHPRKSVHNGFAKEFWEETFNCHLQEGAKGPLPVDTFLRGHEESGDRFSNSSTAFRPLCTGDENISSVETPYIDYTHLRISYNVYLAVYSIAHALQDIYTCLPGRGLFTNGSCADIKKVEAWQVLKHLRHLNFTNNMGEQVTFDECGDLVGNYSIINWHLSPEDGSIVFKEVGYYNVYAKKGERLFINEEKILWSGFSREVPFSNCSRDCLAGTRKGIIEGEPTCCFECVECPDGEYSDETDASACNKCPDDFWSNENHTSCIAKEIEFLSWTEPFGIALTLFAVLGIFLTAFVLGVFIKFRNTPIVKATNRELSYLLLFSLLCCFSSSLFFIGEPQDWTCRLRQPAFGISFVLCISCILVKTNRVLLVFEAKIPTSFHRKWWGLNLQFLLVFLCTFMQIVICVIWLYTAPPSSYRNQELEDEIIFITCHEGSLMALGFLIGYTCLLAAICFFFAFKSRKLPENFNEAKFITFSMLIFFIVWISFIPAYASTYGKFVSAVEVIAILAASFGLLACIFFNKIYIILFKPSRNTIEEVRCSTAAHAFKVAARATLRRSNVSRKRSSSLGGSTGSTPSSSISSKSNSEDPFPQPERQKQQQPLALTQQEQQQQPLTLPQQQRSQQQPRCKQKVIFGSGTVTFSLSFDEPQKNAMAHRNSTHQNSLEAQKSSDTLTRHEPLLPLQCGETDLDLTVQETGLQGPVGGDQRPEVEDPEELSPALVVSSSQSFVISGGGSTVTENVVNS
- Experimental Details: GTPγS binding assay on human CaR-expressing CHO cell membrane
- Format: biochemical
- Settings: 1 μM test compound, % of binding with 6 mM calcium only, compounds marked antagonist
Metric: [^35S]-GTPγS binding (%)

Answered cases to consult:
Can you share its [^35S]-GTPγS binding (%)? I mean this compound: Cc1ccc(C(OC2CCN(C(=O)c3cnn4c3NC(c3ccccc3)CC4C(F)(F)F)CC2)c2ccc(C)cc2)cc1 (stereo not drawn) [Test Compound 4]
10 (1 μM) %

Can you share its [^35S]-GTPγS binding (%)? I mean this compound: COc1ccc(C(NC(=O)c2cnn3c2NC(c2ccccc2)CC3C)c2ccc(OC)cc2)cc1 (stereo not drawn) [Test Compound 2]
0 (1 μM) %

Can you share its [^35S]-GTPγS binding (%)? I mean this compound: CC1(C(F)(F)F)CC(c2ccccc2)Nc2c(C(=O)NC34CC5CC(CC(C5)C3)C4)cnn21 (stereo not drawn) [Test Compound 5]
12 (1 μM) %

Next:
Can you share its [^35S]-GTPγS binding (%)? I mean this compound: CCC(CC)(NC(=O)c1cnn2c1NC(c1ccccc1)CC2C(F)(F)F)c1ccc(C(F)(F)F)cc1 (stereo not drawn) [Test Compound 3]
0 (1 μM) %

Can you share its [^35S]-GTPγS binding (%)? I mean this compound: CCC(CC)(NC(=O)c1cnn2c1NC(c1ccccc1)CC2(C)C)c1ccc(-c2ccsc2)cc1 (stereo not drawn) [Test Compound 6]
0 (1 μM) %

Can you share its [^35S]-GTPγS binding (%)? I mean this compound: COc1ccc(C(CNC(=O)c2cnn3c2NC(c2ccccc2)CC3C(F)(F)F)c2ccccc2)cc1 (stereo not drawn) [Test Compound 1]
34 (1 μM) %
